# Tested on: UACC-62 melanoma
# measurement_description: NCI tumour cell line growth inhibition, 48 h
experimental_endpoint: TGI

>  <compound>
O=C(/C(=C/c1ccc(O)cc1)c1ccccc1)c1ccccc1

>  <result>
27.1 µM

$$$$
>  <compound>
NC(=O)c1ncn(C2OC(CO)C(O)C2O)c1N (stereo unspecified)

>  <result>
> 100 µM

$$$$
>  <compound>
COc1ccc(-c2cc(-c3ccccc3)nc(NCCNc3ccnc4cc(Cl)ccc34)n2)cc1

>  <result>
3.52 µM

$$$$
>  <compound>
CCOC(=O)c1csc(NC(=O)C(C)N2CCOCC2)n1 (stereo unspecified)

>  <result>
> 100 µM

$$$$
>  <compound>
CCOc1ccc(Nc2nc(-c3c(C)nc4ncccn34)cs2)cc1

>  <result>
12.8 µM

$$$$
>  <compound>
NC(N)=N/N=C(/c1ccccc1)c1ccccc1F

>  <result>
20.7 µM

$$$$
>  <compound>
COCC1N=C(c2cc(OC)c(OC)c(OC)c2-c2cc3c(cc2[C@H](C)O)OCO3)O[C@H]1c1ccccc1 (stereo partly specified)

>  <result>
> 100 µM

$$$$
>  <compound>
O=C(C(=O)c1cc(Br)ccc1O)c1cc(Br)ccc1O

>  <result>
17 µM

$$$$
>  <compound>
CCC1CN2CCc3c([nH]c4ccccc34)[C@@](C(=O)OC)(c3cc4c(cc3OC)N(C)C3C(O)(C(=O)OC)C(C(=O)OC)C5(CC)C=CCN6CCC43C65)C[C@@H](C2)[C@@H]1C(C)(C)C (stereo partly specified)

>  <result>
> 10 µM

$$$$
>  <compound>
NC(Cc1ccccc1CP(=O)(O)O)C(=O)O (stereo unspecified)

>  <result>
> 100 µM

$$$$
>  <compound>
Clc1cc2ncn(C3CCCCO3)c2cc1Cl (stereo unspecified)

>  <result>
> 100 µM

$$$$

---

Parameter TGI: see the listing below.
# Tested on: UACC-62 melanoma
# measurement_description: NCI tumour cell line growth inhibition, 48 h

>  <compound>
O=S(=O)(O)c1cc(O)c(N=Nc2ccc3ccccc3c2O)c2ccccc12

>  <experimental_target>
UACC-62 melanoma

>  <measurement_qualifier>
=

>  <TGI (µM)>
42.3

$$$$
>  <compound>
Nc1ncc(C2[C@H](CNC(=O)c3cc(Br)c[nH]3)C(CNC(=O)c3cc(Br)c[nH]3)[C@@H]2c2cnc(N)[nH]2)[nH]1 (stereo partly drawn)

>  <experimental_target>
UACC-62 melanoma

>  <measurement_qualifier>
>

>  <TGI (µM)>
50

$$$$
>  <compound>
O=C(OC[C@@H]1CO1)c1cccc2c(=O)c3ccccc3[nH]c12

>  <experimental_target>
UACC-62 melanoma

>  <measurement_qualifier>
=

>  <TGI (µM)>
0.56

$$$$
>  <compound>
O=C(N/N=C/c1ccc(F)cc1)c1ccc(C(F)(F)F)nc1Nc1cccc(C(F)(F)F)c1

>  <experimental_target>
UACC-62 melanoma

>  <measurement_qualifier>
=

>  <TGI (µM)>
5.77

$$$$
>  <compound>
COC(=O)C1CCC(=O)N1/C(C)=N/NC(=O)Nc1ccc(Cl)c(Cl)c1 (stereo not drawn)

>  <experimental_target>
UACC-62 melanoma

>  <measurement_qualifier>
>

>  <TGI (µM)>
100

$$$$
>  <compound>
c1cncc(C2ONC3=NCCN32)c1 (stereo not drawn)

>  <experimental_target>
UACC-62 melanoma

>  <measurement_qualifier>
>

>  <TGI (µM)>
100

$$$$
>  <compound>
CC[C@]1(Cc2ccc(OC)c(OC)c2)C=[N+]([O-])O[C@H](OC2CCCC2(c2ccccc2)c2ccccc2)[C@@H]1OC(=O)C(C)(C)C (stereo partly drawn)

>  <experimental_target>
UACC-62 melanoma

>  <measurement_qualifier>
=

>  <TGI (µM)>
17.4

$$$$
>  <compound>
N/C(=N\C(N)=N\c1nc2ccccc2s1)c1cnccn1

>  <experimental_target>
UACC-62 melanoma

>  <measurement_qualifier>
=

>  <TGI (µM)>
3.52

$$$$
>  <compound>
COc1cc(/C=C\c2cc(OC)c(OC)c(OC)c2)cc(NS(=O)(=O)c2ccc(Cl)cc2)c1OC

>  <experimental_target>
UACC-62 melanoma

>  <measurement_qualifier>
=

>  <TGI (µM)>
36.7

$$$$
>  <compound>
COc1cc2c(cc1OC)C(=O)N(c1ccc(OCCN3CCCC3)cc1)C2=O

>  <experimental_target>
UACC-62 melanoma

>  <measurement_qualifier>
>

>  <TGI (µM)>
100

$$$$
>  <compound>
O=C(/C=C(\[O-])c1ccccc1)CCCCCCC(=O)/C=C(\[O-])c1ccccc1.O=C(/C=C(\[O-])c1ccccc1)CCCCCCC(=O)/C=C(\[O-])c1ccccc1.O=C(/C=C(\[O-])c1ccccc1)CCCCCCC(=O)/C=C(\[O-])c1ccccc1.[Nd+3].[Nd+3]

>  <experimental_target>
UACC-62 melanoma

>  <measurement_qualifier>
>

>  <TGI (µM)>
50

$$$$
>  <compound>
N#CC(NNC(=O)c1ccccc1O)c1c(O)ccc2ccccc12 (stereo not drawn)

>  <experimental_target>
UACC-62 melanoma

>  <measurement_qualifier>
=

>  <TGI (µM)>
9.32

$$$$
>  <compound>
COc1ccc(N=Nc2c(N)nn3c(SC)c(C#N)c(N)nc23)cc1

>  <experimental_target>
UACC-62 melanoma

>  <measurement_qualifier>
=

>  <TGI (µM)>
20.4

$$$$
>  <compound>
O=c1cccccc1[O-].O=c1cccccc1[O-].O=c1cccccc1[O-].[Sm+3]

>  <experimental_target>
UACC-62 melanoma

>  <measurement_qualifier>
>

>  <TGI (µM)>
100

$$$$
>  <compound>
Cc1cc(C)nc(NS(=O)(=O)c2ccc(Nc3c4ccccc4nc4ccc(C(=O)Nc5ccc(S(=O)(=O)N=C(N)N)cc5)cc34)cc2)n1

>  <experimental_target>
UACC-62 melanoma

>  <measurement_qualifier>
>

>  <TGI (µM)>
100

$$$$
>  <compound>
COC(=O)CC1CC2(C(=O)OC)c3[nH]c4ccccc4c3CCN2C1=O (stereo not drawn)

>  <experimental_target>
UACC-62 melanoma

>  <measurement_qualifier>
>

>  <TGI (µM)>
100

$$$$
>  <compound>
COC1OC(C(=O)O)C2OC(C)(C)OC12 (stereo not drawn)

>  <experimental_target>
UACC-62 melanoma

>  <measurement_qualifier>
>

>  <TGI (µM)>
100

$$$$
>  <compound>
C=CCOC(=O)N1c2ccc(O)cc2[C@@]23O[C@@]24[C@@H]1C#C/C=C\C#C[C@]3(O)C(=O)C[C@@H]4C

>  <experimental_target>
UACC-62 melanoma

>  <measurement_qualifier>
>

>  <TGI (µM)>
100

$$$$

---

# System: HOP-92 NSCLC
# measurement_description: NCI tumour cell line growth inhibition, 48 h

>  <compound>
CC1=C2[C@@H](CC1)[C@]1(C)O[C@@](C3CC3)(C[C@H]1OC(=O)CO)[C@H]2OC(=O)/C=C/c1ccccc1

>  <experimental_target>
HOP-92 NSCLC

>  <GI50>
13.4 µM

$$$$
>  <compound>
CCSc1ncc(Br)c(Sc2nc(N)nc3nc[nH]c23)n1

>  <experimental_target>
HOP-92 NSCLC

>  <GI50>
1.97 µM

$$$$
>  <compound>
[Cl-].[Gd+3].[O-]/N=C(\c1ccccc1)c1ccccn1.[O-]/N=C(\c1ccccc1)c1ccccn1.[O-]/N=C(\c1ccccc1)c1ccccn1

>  <experimental_target>
HOP-92 NSCLC

>  <GI50>
> 100 µM

$$$$
>  <compound>
CCN(CC)CCNc1ccc([N+](=O)[O-])c2sc3cc(Cl)ccc3c(=O)c12

>  <experimental_target>
HOP-92 NSCLC

>  <GI50>
2.15 µM

$$$$
>  <compound>
Cc1cc(Nc2ccc(Cl)cc2)nc(NCCCNc2ccnc3cc(Cl)ccc23)n1

>  <experimental_target>
HOP-92 NSCLC

>  <GI50>
1.01 µM

$$$$
>  <compound>
NC(N)=N/N=C/c1c(-c2ccncc2)nc2sc(Cl)cn12

>  <experimental_target>
HOP-92 NSCLC

>  <GI50>
1.43 µM

$$$$
>  <compound>
CC1OC(OC2C(O[C@H]3CC[C@@]4(C)C(=CC[C@H]5[C@@H]6C[C@@H]7O[C@]8(CC[C@@H](C)CO8)[C@@H](C)[C@@H]7[C@@]6(C)CC[C@@H]54)C3)OC(CO)C(OC3OC(CO)C(O)C3O)C2O)C(O)C(O)C1O (some centres not stated)

>  <experimental_target>
HOP-92 NSCLC

>  <GI50>
1.22 µM

$$$$
>  <compound>
CC1=C(CNO)C2=C(C)C3(CC3)[C@@](C)(O)C(=O)C2=C1

>  <experimental_target>
HOP-92 NSCLC

>  <GI50>
1.12 µM

$$$$
>  <compound>
COc1cc(/C=C\c2cc(OC)c(OC)c(OC)c2)cc(NS(=O)(=O)c2ccc(Cl)cc2)c1OC

>  <experimental_target>
HOP-92 NSCLC

>  <GI50>
0.72 µM

$$$$
>  <compound>
O=C1CCS/C(=N/S(=O)(=O)c2ccc(N3N=C4c5ccccc5CC4C3c3cccs3)cc2)N1Cc1ccccc1 (configuration not stated)

>  <experimental_target>
HOP-92 NSCLC

>  <GI50>
35.9 µM

$$$$
>  <compound>
COc1ccc(/C=C/C(C)=N/OCC(=O)Nc2ccc(Cl)cc2)cc1

>  <experimental_target>
HOP-92 NSCLC

>  <GI50>
0.561 µM

$$$$
>  <compound>
C=CCN=C(N/N=C/c1ccc([N+](=O)[O-])o1)NS(=O)(=O)c1cc(C(=O)Nc2ccccc2)c(Cl)cc1SCC(N)=O

>  <experimental_target>
HOP-92 NSCLC

>  <GI50>
13.6 µM

$$$$
